Hi there, I'd appreciate the recorded pIC50 for every entry that follows.
Tested system: Human MMP1 (Homo sapiens)
Construct: purchased Calbiochem 444208
Sequence (P03956 100-469): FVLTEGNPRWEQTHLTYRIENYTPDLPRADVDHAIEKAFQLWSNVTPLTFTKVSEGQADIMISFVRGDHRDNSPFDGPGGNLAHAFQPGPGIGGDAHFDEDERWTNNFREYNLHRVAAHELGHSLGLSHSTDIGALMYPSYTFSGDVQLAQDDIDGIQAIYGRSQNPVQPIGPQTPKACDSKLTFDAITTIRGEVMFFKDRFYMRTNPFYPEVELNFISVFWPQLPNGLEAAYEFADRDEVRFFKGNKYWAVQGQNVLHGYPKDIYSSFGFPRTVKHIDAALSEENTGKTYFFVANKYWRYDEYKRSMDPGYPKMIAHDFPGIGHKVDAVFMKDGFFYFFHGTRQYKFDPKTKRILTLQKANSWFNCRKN
Assay remarks: MMP1 inhibition experiment
Format: biochemical
Measurement conditions: read-out: IC50 value MMP-1
Answer as the number alone; pIC50 is minus log10 of concentration in mol/L.

Inquiry: Dear colleague, I am looking for the recorded pIC50 of the following compound: Cc1ccc2nc(C)cc(COc3ccc(S(=O)(=O)CC(CC4CCC(=NO)CC4)N(O)C=O)cc3)c2c1 (stereo not drawn) [Example I-76]
Reply text: 4.40

Inquiry: Dear colleague, I am looking for the recorded pIC50 of the following compound: Cc1ccc2nc(C)cc(COc3ccc(S(=O)(=O)CC(C=C4CCOCC4)N(O)C=O)cc3)c2c1 (stereo not drawn) [Example I-74]
Reply text: 4.15

Inquiry: Dear colleague, I am looking for the recorded pIC50 of the following compound: Cc1cc(COc2ccc(S(=O)(=O)CC(C3CCC(=NO)CC3)N(O)C=O)cc2)c2ccccc2n1 (stereo not drawn) [Example I-14]
Reply text: 4.52

Inquiry: Dear colleague, I am looking for the recorded pIC50 of the following compound: Cc1cc(COc2ccc(S(=O)(=O)CC(CC3CCC(=O)CC3)N(O)C=O)cc2)c2ccccc2n1 (stereo not drawn) [Example I-2]
Reply text: 4.22

Inquiry: Dear colleague, I am looking for the recorded pIC50 of the following compound: Cc1cc(COc2ccc(S(=O)(=O)CC(C3CCC4(CC3)OCCO4)N(O)C=O)cc2)c2ccccc2n1 (stereo not drawn) [Example I-28]
Reply text: 4.19

Inquiry: Dear colleague, I am looking for the recorded pIC50 of the following compound: Cc1cccc(CCC(CS(=O)(=O)c2ccc(OCc3cc(C)nc4ccccc34)cc2)N(O)C=O)c1 (stereo not drawn) [Example I-39]
Reply text: 4.14

Inquiry: Dear colleague, I am looking for the recorded pIC50 of the following compound: CON=C1CCC(C(CS(=O)(=O)c2ccc(OCc3cc(C)nc4ccccc34)cc2)N(O)C=O)CC1 (stereo not drawn) [Example I-12]
Reply text: 4.35
